TEST_SUMMARY: Half life in Swiss Webster mouse at 5 mg/kg, iv by HPLC-MS/MS analysis
Assay type: ADME, organism-based
Design: dose 5 mg/kg, route intravenous
EXPERIMENTAL_SETUP: in vivo
QUANTITY_NAME: half-life (h)

| INPUT_SMILES | QUANTITY_NAME | REPORTED_MEASUREMENT |
| --- | --- | --- |
| CC(C)Oc1cc(NC(=N)c2ccccn2)ccc1-c1ccc(-c2ccc(NC(=N)c3ccccn3)cc2OC(C)C)o1 | half-life | 24 |

* * *

System: Mus musculus
TEST_SUMMARY: Renal toxicity in BALB/c mouse assessed as phosphorus level in serum at 20 mg/kg/day, iv administered for five days (Rvb= 6.1 mg/dl)
Type: organism-based
Design: route intravenous
EXPERIMENTAL_SETUP: in vivo

| INPUT_SMILES | OUTPUT_UNIT | Activity |
| --- | --- | --- |
| CC(C)Oc1cc(NC(=N)c2ccccn2)ccc1-c1ccc(-c2ccc(NC(=N)c3ccccn3)cc2OC(C)C)o1 | mg/dL | 6.5 |
| CCOc1cc(NC(=N)c2ccccn2)ccc1-c1ccc(-c2ccc(NC(=N)c3ccccn3)cc2OCC)o1 | mg/dL | 7.3 |

* * *

Test system: Mus musculus
TEST_SUMMARY: Renal toxicity in BALB/c mouse assessed as phosphorus level in serum at 5 mg/kg/day, iv administered for five days (Rvb= 6.1 mg/dl)
Type: organism-based
Parameters: route intravenous
EXPERIMENTAL_SETUP: in vivo
Form field: Activity (one value per entry).

| INPUT_SMILES | Activity (mg/dL) |
| --- | --- |
| CCOc1cc(NC(=N)c2ccccn2)ccc1-c1ccc(-c2ccc(NC(=N)c3ccccn3)cc2OCC)o1 | 7.1 |
| CC(C)Oc1cc(NC(=N)c2ccccn2)ccc1-c1ccc(-c2ccc(NC(=N)c3ccccn3)cc2OC(C)C)o1 | 7 |

* * *

TEST_SUMMARY: Half life in rat liver microsome by HPLC-MS/MS analysis in presence of 0.1 uM NADPH
Assay type: ADME
EXPERIMENTAL_SETUP: liver microsomes
QUANTITY_NAME: half-life (min)

| INPUT_SMILES | QUANTITY_NAME | REPORTED_MEASUREMENT |
| --- | --- | --- |
| CC(C)Oc1cc(NC(=N)c2ccccn2)ccc1-c1ccc(-c2ccc(NC(=N)c3ccccn3)cc2OC(C)C)o1 | half-life | 96 |
| CCOc1cc(NC(=N)c2ccccn2)ccc1-c1ccc(-c2ccc(NC(=N)c3ccccn3)cc2OCC)o1 | half-life | 80 |

* * *

Form field: Activity (one value per entry).
Test system: Mus musculus
TEST_SUMMARY: Renal toxicity in BALB/c mouse assessed as blood urea nitrogen level in serum at 20 mg/kg/day, iv administered for five days (Rvb= 20 mg/dl)
Type: organism-based
Parameters: route intravenous
EXPERIMENTAL_SETUP: in vivo

| INPUT_SMILES | TARGET_OR_SYSTEM | Activity / mg/dL |
| --- | --- | --- |
| CC(C)Oc1cc(NC(=N)c2ccccn2)ccc1-c1ccc(-c2ccc(NC(=N)c3ccccn3)cc2OC(C)C)o1 | Mus musculus | 26 |
| CCOc1cc(NC(=N)c2ccccn2)ccc1-c1ccc(-c2ccc(NC(=N)c3ccccn3)cc2OCC)o1 | Mus musculus | 27 |

meta.source: ChEMBL document CHEMBL1275590
